# Protocol description: Cytotoxicity against human BxPC3 cells after 48 hrs by SRB assay
# Type: functional
# Measurement context: BXPC-3, 48 h
Metric: GI50 (µg/mL)
Give just the number in µg/mL; leave the unit off.

Compound	GI50 [µg/mL]
CC1(C)CC[C@]23CC[C@]4(C)[C@H](CC[C@@H]5[C@@]6(C)CC(N=[N+]=[N-])C(=O)C(C)(C)[C@@H]6CC[C@]54C)[C@H]2[C@H]1OC3 (some centres undefined)	3.1
C=C(C)[C@@H]1CC[C@]2(CO)CC[C@]3(C)[C@H](CC[C@@H]4[C@@]5(C)CC[C@H](O)C(C)(C)[C@@H]5CC[C@]43C)[C@@H]12	9.3

Fill in GI50 for record C=C(C)[C@@H]1CC[C@]2(COC(C)=O)CC[C@]3(C)[C@H](CC[C@@H]4[C@@]5(C)CC(=O)C(O)C(C)(C)[C@@H]5CC[C@]43C)[C@@H]12 (some centres undefined)
9.1

====

# Protocol description: Cytotoxicity against human KM20L2 cells after 48 hrs by SRB assay
# Assay type: functional
# Measurement context: KM-20L2, 48 h
Some molecules, each annotated with its measured GI50.
Give just the number in µg/mL; leave the unit off.

Fill in GI50 for record C=C(C)[C@@H]1CC[C@]2(COC(C)=O)CC[C@]3(C)[C@H](CC[C@@H]4[C@@]5(C)CC(=O)C(O)C(C)(C)[C@@H]5CC[C@]43C)[C@@H]12 (some centres undefined)
5.9

Fill in GI50 for record `C=C(C)[C@@H]1CC[C@]2(COC(C)=O)CC[C@]3(C)[C@H](CC[C@@H]4[C@@]5(C)C[C@H](Br)C(=O)C(C)(C)[C@@H]5CC[C@]43C)[C@@H]12`
4.4

Fill in GI50 for record C=C(C)[C@@H]1CC[C@]2(C(=O)OC)CC[C@]3(C)[C@H](CC[C@@H]4[C@@]5(C)CCC(=O)C(C)(C)[C@@H]5CC[C@]43C)[C@@H]12 [METHYL BETULONATE]
2.2

Fill in GI50 for record `C=C(C)[C@@H]1CC[C@]2(CO)CC[C@]3(C)[C@H](CC[C@@H]4[C@@]5(C)CC6=NC(C)(C)N=C6C(C)(C)[C@@H]5CC[C@]43C)[C@@H]12`
4.9

Fill in GI50 for record C=C(C)[C@@H]1CC[C@]2(COC(C)=O)CC[C@]3(C)[C@H](CC[C@@H]4[C@@]5(C)CC(N=[N+]=[N-])C(=O)C(C)(C)[C@@H]5CC[C@]43C)[C@@H]12 (some centres undefined)
4.2

Fill in GI50 for record `C=C(C)[C@@H]1CC[C@]2(COC(C)=O)CC[C@]3(C)[C@H](CC[C@@H]4[C@@]5(C)CC(Br)(Br)C(=O)C(C)(C)[C@@H]5CC[C@]43C)[C@@H]12`
4.2

Fill in GI50 for record `C=C(C)[C@@H]1CC[C@]2(COC(C)=O)CC[C@]3(C)[C@H](CC[C@@H]4[C@@]5(C)CCC(=O)C(C)(C)[C@@H]5CC[C@]43C)[C@@H]12`
12.7

Fill in GI50 for record CC1(C)CC[C@]23CC[C@]4(C)[C@H](CC[C@@H]5[C@@]6(C)CC(N=[N+]=[N-])C(=O)C(C)(C)[C@@H]6CC[C@]54C)[C@H]2[C@H]1OC3 (some centres undefined)
7.9

Fill in GI50 for record `C=C(C)[C@@H]1CC[C@]2(COC(C)=O)CC[C@]3(C)[C@H](CC[C@@H]4[C@@]5(C)CC[C@H](O)C(C)(C)[C@@H]5CC[C@]43C)[C@@H]12`
5

Fill in GI50 for record CC1(C)CC[C@]23CC[C@]4(C)[C@H](CC[C@@H]5[C@@]6(C)CC(Br)C(=O)C(C)(C)[C@@H]6CC[C@]54C)[C@H]2[C@H]1OC3 (some centres undefined)
2.7

====

Some compounds, each annotated with its measured GI50.
# Protocol description: Cytotoxicity against human BxPC3 cells after 48 hrs by SRB assay
# Assay type: functional
# Measurement context: BXPC-3, 48 h
Give just the number in µg/mL; leave the unit off.

Compound	GI50, µg/mL
C=C(C)[C@@H]1CC[C@]2(C(=O)OC)CC[C@]3(C)[C@H](CC[C@@H]4[C@@]5(C)CCC(=O)C(C)(C)[C@@H]5CC[C@]43C)[C@@H]12 [METHYL BETULONATE]	2.4

Could you now look at the following compound, please?
Fill in GI50 for record `C=C(C)[C@@H]1CC[C@]2(COC(C)=O)CC[C@]3(C)[C@H](CC[C@@H]4[C@@]5(C)C=C(N)C(=O)C(C)(C)[C@@H]5CC[C@]43C)[C@@H]12`
7.9

====

# Protocol description: Cytotoxicity against human BxPC3 cells after 48 hrs by SRB assay
# Type: functional
# Measurement context: BXPC-3, 48 h
Metric: log10(GI50) (log10 of the value in µg/mL)
Could you please treat all values as log10 of GI50 in µg/mL?

Compound	log10(GI50)
C=C(C)[C@@H]1CC[C@]2(C(=O)OC)CC[C@]3(C)[C@H](CC[C@@H]4[C@@]5(C)C=C(N6CCOCC6)C(=O)C(C)(C)[C@@H]5CC[C@]43C)[C@@H]12	0.59
C=C(C)[C@@H]1CC[C@]2(COC(C)=O)CC[C@]3(C)[C@H](CC[C@@H]4[C@@]5(C)CC(N=[N+]=[N-])C(=O)C(C)(C)[C@@H]5CC[C@]43C)[C@@H]12 (stereo not given in full)	0.82
CC1(C)CC[C@]23CC[C@]4(C)[C@H](CC[C@@H]5[C@@]6(C)CC(Br)C(=O)C(C)(C)[C@@H]6CC[C@]54C)[C@H]2[C@H]1OC3 (stereo not given in full)	0.49
CC1(C)CC[C@]23CC[C@]4(C)[C@H](CC[C@@H]5[C@@]6(C)C=C(N)C(=O)C(C)(C)[C@@H]6CC[C@]54C)[C@H]2[C@H]1OC3	1.03
C=C(C)[C@@H]1CC[C@]2(CO)CC[C@]3(C)[C@H](CC[C@@H]4[C@@]5(C)CC6=NC(C)(C)N=C6C(C)(C)[C@@H]5CC[C@]43C)[C@@H]12	0.28

Fill in log10(GI50) for record `C=C(C)[C@@H]1CC[C@]2(COC(C)=O)CC[C@]3(C)[C@H](CC[C@@H]4[C@@]5(C)CC(Br)(Br)C(=O)C(C)(C)[C@@H]5CC[C@]43C)[C@@H]12`
0.00

Fill in log10(GI50) for record `C=C(C)[C@@H]1CC[C@]2(COC(C)=O)CC[C@]3(C)[C@H](CC[C@@H]4[C@@]5(C)CC6=NC(C)(C)N=C6C(C)(C)[C@@H]5CC[C@]43C)[C@@H]12`
1.16

====

Some molecules, each annotated with its measured GI50.
# Protocol description: Cytotoxicity against human BxPC3 cells after 48 hrs by SRB assay
# Assay type: functional
# Measurement context: BXPC-3, 48 h
Give just the number in µg/mL; leave the unit off.

Past entries and their recorded results:
> print(dat)
                               smiles.input  metric  reported.result
1  C=C(C)[C@@H]1CC[C@]2(COC(C)=O)CC[C@]3(C)[C@H](CC[C@@H]4[C@@]5(C)C[C@@H](Br)C(=O)C(C)(C)[C@@H]5CC[C@]43C)[C@@H]12    GI50              3.1
2  C=C(C)[C@@H]1CC[C@]2(C(=O)OC)CC[C@]3(C)[C@H](CC[C@@H]4[C@@]5(C)CC(=O)CC(C)(C)[C@@H]5CC[C@]43C)[C@@H]12    GI50              8.2
3  C=C(C)[C@@H]1CC[C@]2(COC(C)=O)CC[C@]3(C)[C@H](CC[C@@H]4[C@@]5(C)C[C@H](Br)C(=O)C(C)(C)[C@@H]5CC[C@]43C)[C@@H]12    GI50              3.4

Could you now look at the following molecule, please?
Fill in GI50 for record `C=C(C)[C@@H]1CC[C@]2(COC(C)=O)CC[C@]3(C)[C@H](CC[C@@H]4[C@@]5(C)CC[C@H](O)C(C)(C)[C@@H]5CC[C@]43C)[C@@H]12`
4.1

====

Some compounds, each annotated with its measured GI50.
# Protocol description: Cytotoxicity against human KM20L2 cells after 48 hrs by SRB assay
# Type: functional
# Measurement context: KM-20L2, 48 h
Give just the number in µg/mL; leave the unit off.

Smiles input	GI50, µg/mL
C=C(C)[C@@H]1CC[C@]2(COC(C)=O)CC[C@]3(C)[C@H](CC[C@@H]4[C@@]5(C)C[C@@H](Br)C(=O)C(C)(C)[C@@H]5CC[C@]43C)[C@@H]12	9.6

Could you now look at the following compound, please?
Fill in GI50 for record `CC1(C)CC[C@]23CC[C@]4(C)[C@H](CC[C@@H]5[C@@]6(C)C=C(O)C(=O)C(C)(C)[C@@H]6CC[C@]54C)[C@H]2[C@H]1OC3`
8
